Form field: composite z-score (one value per entry).
Target: Torsin-1A (Homo sapiens) (UniProt O14656)
Sequence (O14656 whole entry, looked up): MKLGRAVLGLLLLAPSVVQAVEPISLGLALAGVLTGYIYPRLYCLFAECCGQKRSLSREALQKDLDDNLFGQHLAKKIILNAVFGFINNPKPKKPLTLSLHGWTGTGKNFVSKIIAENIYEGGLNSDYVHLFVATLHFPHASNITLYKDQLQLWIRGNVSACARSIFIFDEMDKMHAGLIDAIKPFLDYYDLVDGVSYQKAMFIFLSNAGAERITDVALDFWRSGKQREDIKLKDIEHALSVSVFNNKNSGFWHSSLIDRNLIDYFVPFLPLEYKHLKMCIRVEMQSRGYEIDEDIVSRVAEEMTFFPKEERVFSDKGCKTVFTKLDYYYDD
Assay: TOR1A wild-type binding on microarray – cell lysate, small-molecule microarray, lysate, 635/667 nm, primary screen (AID 1149)
Settings: COS7 hTOR1A-WT lysate, 635 nm fluorescence, higher = more signal
reported_metric: composite z-score

>  <compound>
C=CC[C@]1(C(=O)N2CCOCC2)N=C(c2ccc(OCCCO)cc2)O[C@H]1c1ccccc1N=[N+]=[N-]

>  <system_tested>
Torsin-1A (Homo sapiens) (UniProt O14656)

>  <reported_metric>
composite z-score

>  <experimental_result>
0.35

$$$$
>  <compound>
CCOC(=O)C[C@H]1[C@H](OC(=O)c2ccc(-c3ccccc3)cc2)[C@@H](NC(=O)c2ccccc2)c2cc(OCCCO)ccc2N1C(=O)Cc1ccc(OC)cc1

>  <system_tested>
Torsin-1A (Homo sapiens) (UniProt O14656)

>  <reported_metric>
composite z-score

>  <experimental_result>
-0.0369

$$$$
>  <compound>
OB1C=CCC(CCc2ccccc2)O1 (centres undefined)

>  <system_tested>
Torsin-1A (Homo sapiens) (UniProt O14656)

>  <reported_metric>
composite z-score

>  <experimental_result>
-0.459

$$$$
>  <compound>
C=CCC(OC(C)=O)[C@@H]1[C@@H](N(Cc2cc3ccccc3o2)C(=O)Cc2ccc(OC)cc2)c2cc(OCCCO)ccc2N1C(=O)c1ccc2ccccc2c1 (some centres undefined)

>  <system_tested>
Torsin-1A (Homo sapiens) (UniProt O14656)

>  <reported_metric>
composite z-score

>  <experimental_result>
-0.748

$$$$

* * *

Biological target: Dickkopf-related protein 1 (Homo sapiens) (UniProt O94907)
Sequence (O94907 whole entry, looked up): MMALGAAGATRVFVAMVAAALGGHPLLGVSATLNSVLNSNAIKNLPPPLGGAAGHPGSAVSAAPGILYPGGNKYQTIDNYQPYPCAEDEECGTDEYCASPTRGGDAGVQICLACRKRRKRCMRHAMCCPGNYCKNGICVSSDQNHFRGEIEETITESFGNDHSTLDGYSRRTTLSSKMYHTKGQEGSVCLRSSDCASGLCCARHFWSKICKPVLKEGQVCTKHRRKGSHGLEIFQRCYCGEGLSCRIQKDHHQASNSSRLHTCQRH
Test: small molecules binding DKK1 protein – biochemical, small-molecule microarray, 635 nm fluorescence scan, primary screen (AID 1106);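 further: score merges emission near 667 nm with signal to noise over three replicate slides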
Conditions: higher = more signal
Response key: Met means composite z-score >= 0.3; Not met means composite z-score < 0.3.

>  <compound>
[N-]=[N+]=Nc1ccccc1C[C@]1(C(=O)N2CCCCC2)COC(c2ccc(OCCCO)cc2)=N1

>  <system_tested>
Dickkopf-related protein 1 (Homo sapiens) (UniProt O94907)

>  <class_name>
Not met

$$$$
>  <compound>
C=C(/C(=C/C[C@H](OC(C)=O)c1ccc(OCCO)cc1)c1cc(C(=O)OC)ccc1OC)C(C)C

>  <system_tested>
Dickkopf-related protein 1 (Homo sapiens) (UniProt O94907)

>  <class_name>
Not met

$$$$
>  <compound>
O=C1NC(=O)C2C1C=CC(C(O)C1CC=CCC1)N2Nc1ccccn1 (configuration not stated)

>  <system_tested>
Dickkopf-related protein 1 (Homo sapiens) (UniProt O94907)

>  <class_name>
Met

$$$$
>  <compound>
O=C1O[C@@H](c2ccccc2)[C@@H](c2ccccc2)N2[C@@H](c3ccc(OCCO)cc3)[C@]3(C(=O)Nc4ccc(C#CC5=CCCCC5)cc43)[C@@H](C(=O)N3CCCCCCC3)[C@H]12

>  <system_tested>
Dickkopf-related protein 1 (Homo sapiens) (UniProt O94907)

>  <class_name>
Met

$$$$
>  <compound>
CCOC(=O)[C@H]1C/C=C/C[C@H](C(=O)OCC)C(=O)O[C@H]2[C@@H](OC)O[C@H](CO)[C@@H](OC(=O)c3ccc(Br)cc3)[C@@H]2OC1=O

>  <system_tested>
Dickkopf-related protein 1 (Homo sapiens) (UniProt O94907)

>  <class_name>
Met

$$$$
>  <compound>
CO[C@H]1O[C@H](CO)[C@@H](OC(=O)Nc2ccccc2-c2ccccc2)[C@H](OC(=O)Nc2ccccc2-c2ccccc2)[C@@H]1OC(=O)Nc1ccccc1-c1ccccc1

>  <system_tested>
Dickkopf-related protein 1 (Homo sapiens) (UniProt O94907)

>  <class_name>
Not met

$$$$
>  <compound>
CCCC=C(CCC)[C@@H](NS(=O)(=O)c1ccc(Cl)cc1)c1ccc(C(=O)OC)cc1

>  <system_tested>
Dickkopf-related protein 1 (Homo sapiens) (UniProt O94907)

>  <class_name>
Not met

$$$$

* * *

Target: Dihydroorotate dehydrogenase (quinone), mitochondrial (Plasmodium falciparum (isolate 3D7))
Test: inhibition of P. falciparum DHODH – biochemical, C-terminal His tag, absorbance 600 nm, primary screen (AID 1175);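 further: recombinant parasite enzyme with a five histidine tag at its C terminus; test concentration not given here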
Conditions: PfDHODH enzyme, DCIP absorbance 600 nm; higher = more signal, called active from +8 up or from −8 down

>  <test_smiles>
CCOC(=O)C1=C[C@@H](C(C)C)N(S(=O)(=O)c2ccc(C)cc2)[C@H]1c1ccccc1F

>  <composite z-score>
-0.471

$$$$
>  <test_smiles>
CN(C)C(=O)[C@]1(Cc2ccccc2)N=C(c2ccc(OCCCO)cc2)O[C@@H]1c1ccccc1N=[N+]=[N-]

>  <composite z-score>
0.9

$$$$
>  <test_smiles>
COc1cc(CO)cc(I)c1O[C@H]1C=C(C(=O)NCCO)C[C@@H](NC[C@@H]2CCCO2)[C@@H]1O

>  <composite z-score>
0.459

$$$$
>  <test_smiles>
COc1ccc(C#Cc2ccc3c(c2)[C@]2(C(=O)N3)[C@H](c3ccc(O)cc3)N3[C@H](c4ccccc4)[C@H](c4ccccc4)OC(=O)[C@H]3[C@@H]2C(=O)N2CCc3cc(OC)c(OC)cc3C2)cc1

>  <composite z-score>
-0.103

$$$$

* * *

Molecular target: Dihydroorotate dehydrogenase (quinone), mitochondrial (Plasmodium falciparum (isolate 3D7))
Test: inhibition of P. falciparum DHODH – biochemical, C-terminal His tag, absorbance 600 nm, primary screen (AID 1175);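 further: recombinant parasite enzyme with a five histidine tag at its C terminus; test concentration not given here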
Details: PfDHODH enzyme, DCIP absorbance 600 nm; higher = more signal, called active from +8 up or from −8 down
Please mark TRUE if the recorded composite z-score is equal to or greater than -0.3, and FALSE if it falls below.

>  <compound>
O=C1C2C=CC(C(O)c3ccc(-c4ccccc4)s3)N(Nc3ccccc3)C2C(=O)N1c1ccccc1 (stereo not drawn)

>  <class_name>
TRUE

$$$$
>  <compound>
CCCCC(O)C1C=CC2C(=O)N(C)C(=O)C2N1N1CCCCC1 (stereo not drawn)

>  <class_name>
TRUE

$$$$
>  <compound>
C=CCN1Cc2ccccc2[C@@H]2OC(c3ccc(OCCCO)cc3)=N[C@]2(CCS(=O)(=O)c2ccccc2)C1=O

>  <class_name>
TRUE

$$$$
>  <compound>
[N-]=[N+]=NCc1ccccc1[C@@H]1OC(c2ccc(OCCCO)cc2)=N[C@]1(CCS(=O)(=O)c1ccccc1)C(=O)N1CCOCC1

>  <class_name>
FALSE

$$$$
>  <compound>
COc1ccc([Si](C)(C)[C@H]2[C@H](CCO)O[C@@]3(C(=O)N(Cc4ccccc4)c4ccc(N5CCCCC5=O)cc43)[C@@H]2C)cc1

>  <class_name>
FALSE

$$$$
>  <compound>
O=c1cccc(-c2ccccc2Cl)o1

>  <class_name>
FALSE

$$$$
>  <compound>
C#CCN1[C@H](/C=C/C2CC2)[C@H](Cc2ccccc2)OC(=O)[C@@H]1Cc1ccccc1

>  <class_name>
FALSE

$$$$
>  <compound>
CC(C)NC(=O)[C@@]1(Cc2ccccc2I)c2ccccc2C(=O)N(Cc2ccccc2Cl)[C@H]1c1ccc(CO)cc1

>  <class_name>
TRUE

$$$$
>  <compound>
COCCOC(=O)N1C(=O)[C@@]2(c3cc(C#CCCO)ccc31)[C@H](c1ccc(O)cc1)N1[C@H](c3ccccc3)[C@H](c3ccccc3)OC(=O)[C@H]1[C@@H]2C(=O)N1CCN(c2ncccn2)CC1

>  <class_name>
TRUE

$$$$
>  <compound>
CCCCCCc1nc(-c2ccc(-c3ccc(Cl)c(Cl)c3)o2)cc2c1[Si](C(C)C)(C(C)C)O[C@H]2c1ccccc1

>  <class_name>
TRUE

$$$$
>  <compound>
N#Cc1ccc(C(O)C2C=CC3C(=O)N(c4ccccc4)C(=O)C3N2Nc2ccccc2F)cc1 (stereo not drawn)

>  <class_name>
TRUE

$$$$
>  <compound>
CCCCN1CC=CC23O[C@@H]4/C=C\CCCOC(=O)C4[C@H]2C(=O)N(CCCCCO)[C@@H]3C1=O (stereo partly drawn)

>  <class_name>
FALSE

$$$$
>  <compound>
COCC(=C=CC[C@H](O)c1cccc(OCCO)c1)C[C@H](O)c1cc(Cl)cc(Cl)c1O

>  <class_name>
FALSE

$$$$
>  <compound>
CCCCC(=C=CC[C@@H](O)c1ccc(CO)o1)CCO

>  <class_name>
FALSE

$$$$
>  <compound>
COc1cc2c(cc1O)C(c1cccs1)N(Cc1cccc(OC(F)(F)F)c1)CC2 (stereo not drawn)

>  <class_name>
FALSE

$$$$
>  <compound>
O=C1O[C@@H](c2ccccc2)[C@@H](c2ccccc2)N2[C@@H](c3ccc(OCCO)cc3)[C@]3(C(=O)Nc4ccc(C#CCCO)cc43)[C@@H](C(=O)NC[C@H](O)c3ccccc3)[C@H]12

>  <class_name>
TRUE

$$$$
>  <compound>
COc1ccc(C(=O)Nc2ccc(CN3C(=O)[C@]4(O[C@H](CC(=O)N5CCC[C@H]5CO)[C@@H]([Si](C)(C)c5ccc(OC)cc5)[C@@H]4C)c4ccccc43)cc2)cc1

>  <class_name>
FALSE

$$$$
>  <compound>
[N-]=[N+]=NCc1ccccc1C[C@@]1(C(=O)NCC(O)CO)N=C(c2ccc(OCCCO)cc2)O[C@@H]1c1ccccc1 (stereo partly drawn)

>  <class_name>
TRUE

$$$$
>  <compound>
COc1ccc([C@H]2C[C@H]3C(Br)=C[C@@]2(CO)C(=O)[C@]32CO2)cc1

>  <class_name>
TRUE

$$$$
>  <compound>
Cc1ccc(C2C3C(=O)CC4C(=O)N(c5ccccc5)C(=O)C4C3CN2S(=O)(=O)c2ccc(C)cc2)cc1 (stereo not drawn)

>  <class_name>
TRUE

$$$$
>  <compound>
C=CC[C@@]1(C(=O)N2CCCCC2)N=C(c2ccc(OCCCO)cc2)O[C@@H]1c1ccccc1CN=[N+]=[N-]

>  <class_name>
TRUE

$$$$
>  <compound>
NCCCCCNC(=O)[C@H]1C[C@H]2C(=O)N3CCC[C@H]3C(=O)N2[C@H]1c1ccc(O)cc1

>  <class_name>
FALSE

$$$$
